# Test system: MOLT-4 leukemia
# procedure-details: NCI tumour cell line growth inhibition, 48 h
Each entry below carries its recorded TGI.

[[record]]
compound = "CSc1c(C(=O)Nc2ccc(C)cc2)c(N)[nH]c(=O)c1C#N"
tested_target = "MOLT-4 leukemia"
readout_name = "TGI"
reading = "> 100 µM"

[[record]]
compound = "O=c1nc2c(c(-c3cccc(Cl)c3)[nH]1)COC/C2=C\\c1cccc(Cl)c1"
tested_target = "MOLT-4 leukemia"
readout_name = "TGI"
reading = "> 100 µM"

[[record]]
compound = "OCc1ccccc1C1CSCSC1"
tested_target = "MOLT-4 leukemia"
readout_name = "TGI"
reading = "> 100 µM"

[[record]]
compound = "O=C(Nc1ccccc1[N+](=O)[O-])c1ccccc1"
tested_target = "MOLT-4 leukemia"
readout_name = "TGI"
reading = "> 100 µM"

[[record]]
compound = "O=C(/C=C(\\[O-])c1ccccc1)CCCCCCC(=O)/C=C(\\[O-])c1ccccc1.O=C(/C=C(\\[O-])c1ccccc1)CCCCCCC(=O)/C=C(\\[O-])c1ccccc1.O=C(/C=C(\\[O-])c1ccccc1)CCCCCCC(=O)/C=C(\\[O-])c1ccccc1.[La+3].[La+3]"
tested_target = "MOLT-4 leukemia"
readout_name = "TGI"
reading = "> 50 µM"

[[record]]
compound = "CC(=O)c1ccc(N(/C=C/C(=O)C(F)(F)F)CC(=O)c2ccc(Cl)c(Cl)c2)cc1"
tested_target = "MOLT-4 leukemia"
readout_name = "TGI"
reading = "27.2 µM"

[[record]]
compound = "CC(C)=CC1C(C(=O)O)C1(C)C (stereo not drawn)"
tested_target = "MOLT-4 leukemia"
readout_name = "TGI"
reading = "> 750 µM"


Lab note: next compound to report on.
Query string: So what does the record say about TGI for CC1CC(C#N)=C2NCCCCN2C1=O (stereo not drawn) ?
Result string: > 100 µM

====

# Test system: DU-145 prostate
# procedure-details: NCI tumour cell line growth inhibition, 48 h
readout-name: TGI

Take a look at these entries with their results.
[[record]]
molecule = "CC1=C2[C@@H](CC1)[C@]1(C)O[C@@](C(C)C)(C[C@H]1OC(=O)[C@H](C)O)[C@H]2OC(=O)/C=C/c1ccccc1"
reading = "31.9 µM"

[[record]]
molecule = "CN1C(=O)CN(NC(=O)C2=C(O)c3ccc(Br)cc3S(=O)(=O)N2)C1=S"
reading = "> 100 µM"

[[record]]
molecule = "CCOc1ccc(N=C/C=C(\\Cl)c2ccc3ccccc3c2)cc1"
reading = "30.7 µM"


Query string: So what does the record say about TGI for COc1cc2c(c(O)c1C)C(=O)C(Cl)=CC2=O ?
Result string: 13.3 µM

Query string: So what does the record say about TGI for O=C(O)CNC(=O)c1ccc([As](=O)(O)O)cc1 ?
Result string: > 100 µM

Query string: So what does the record say about TGI for O=C(O)Cc1ccc2nc(COC(=O)c3ccccc3)sc2c1 ?
Result string: > 100 µM

====

Each entry below carries its recorded TGI.
# System: SW-620 colon
# procedure-details: NCI tumour cell line growth inhibition, 48 h

Take a look at these entries with their results.
[[record]]
compound = "COC(c1ccc(C(C)(C)C)cc1)(c1ccc(C(C)(C)C)cc1)c1cc(C(O)(c2cc(C(OC)(c3ccc(C(C)(C)C)cc3)c3ccc(C(C)(C)C)cc3)c(C)cc2C)c2cc(C(OC)(c3ccc(C(C)(C)C)cc3)c3ccc(C(C)(C)C)cc3)c(C)cc2C)c(C)cc1C"
reading = "> 100 µM"

[[record]]
compound = "Cc1nc2ccc([N+](=O)[O-])cc2c(=O)n1C(=S)Nc1cccc(Cl)c1"
reading = "53.3 µM"

[[record]]
compound = "Cc1cc2cccc(Cl)c2nc1C(=O)c1ccccc1"
reading = "> 100 µM"


Query string: So what does the record say about TGI for O=C(O)Cc1c[nH]c2ccc(F)cc12 ?
Result string: > 100 µM

Query string: So what does the record say about TGI for CCOC(=O)C(=O)N1C(C)=C(C(=O)OCC)CC(C(=O)OCC)=C1C ?
Result string: > 100 µM
